Reference source: patent US20260146035A1

Target: human MER (528-end) (Homo sapiens)
Construct: human MER (528-end); purchased Camnabio, Japan
Sequence (Q12866 528-999 limits assumed): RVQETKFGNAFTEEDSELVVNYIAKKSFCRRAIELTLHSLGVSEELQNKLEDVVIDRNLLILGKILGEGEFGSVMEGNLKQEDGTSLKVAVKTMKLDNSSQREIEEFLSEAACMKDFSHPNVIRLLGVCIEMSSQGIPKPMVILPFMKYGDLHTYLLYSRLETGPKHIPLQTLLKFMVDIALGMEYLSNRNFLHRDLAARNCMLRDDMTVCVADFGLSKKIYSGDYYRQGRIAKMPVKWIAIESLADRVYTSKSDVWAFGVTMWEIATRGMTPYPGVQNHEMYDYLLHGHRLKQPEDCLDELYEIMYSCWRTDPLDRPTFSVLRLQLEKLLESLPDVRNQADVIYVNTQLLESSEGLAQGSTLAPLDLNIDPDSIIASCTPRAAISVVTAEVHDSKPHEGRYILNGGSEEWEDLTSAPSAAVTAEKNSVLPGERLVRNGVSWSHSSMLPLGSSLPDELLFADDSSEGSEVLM
Procedure Summary: HTRF kinase activity biochemical assay, MER
Settings: 10 μM ATP, 30 minutes pre-incubation; read-out: HTRF MERTK IC50
Method: For the SAR (structure-activity relationship) and compound screening, HTRF (Homogeneous Time Resolved Fluorescence) kinase activity assay was employed for all MER, AXL and TYRO3 kinases using Cisbio HTRF® KinEASE™-TK kit (Cisbio, USA). The kit included biotin-labeled TK substrate, streptavidin-XL665, Eu3+-cryptate-labeled TK antibody and HTRF® Detection buffer. […] After 1 hour incubation at room temperature, the fluorescence intensity was measured with Envision[…] plate reader (PerkinElmer, USA). […]
Readout Kind: IC50

Entry Nc1ncc(-c2ccc(F)nc2)cc1C(=O)N[C@H]1CCC[C@@H]1OCc1ccc(-c2ccc3c(c2)C[C@H](F)[C@@H]3N2CCN(CCO)CC2)cc1 (relative stereo) : reported IC50 = ? < 10 nM

====

# IC50 listing for each entry below
Target: human TYRO3 (455-end) (Homo sapiens, UniProt Q06418)
Construct: TYRO3 (455-end); purchased SignalChem, Canada
Sequence (Q06418 455-890 limits assumed): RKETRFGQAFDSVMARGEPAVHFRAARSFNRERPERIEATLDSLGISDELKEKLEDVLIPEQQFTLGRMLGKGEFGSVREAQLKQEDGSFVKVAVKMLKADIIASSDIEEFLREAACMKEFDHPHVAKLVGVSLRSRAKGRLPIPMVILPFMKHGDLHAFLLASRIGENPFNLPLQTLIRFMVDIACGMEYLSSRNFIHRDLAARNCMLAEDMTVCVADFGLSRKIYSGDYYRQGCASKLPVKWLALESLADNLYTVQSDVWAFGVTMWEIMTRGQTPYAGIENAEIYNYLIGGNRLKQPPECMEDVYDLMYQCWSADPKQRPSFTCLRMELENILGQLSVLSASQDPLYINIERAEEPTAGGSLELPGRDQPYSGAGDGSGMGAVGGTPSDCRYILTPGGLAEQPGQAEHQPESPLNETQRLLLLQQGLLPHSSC
Procedure Summary: HTRF kinase activity biochemical assay, TYRO3
Settings: 10 μM ATP, 30 minutes pre-incubation; read-out: HTRF TYRO IC50

Solved entries (count: 2):
INSERT INTO assay_data (compound, observed_value) VALUES
  ('Nc1ncc(C(F)(F)F)cc1C(=O)N[C@H]1CCC[C@@H]1OCc1ccc(-c2ccc3c(c2)CCCC3N2CCN(CCO)CC2)cc1 (stereo partly drawn)', '100 to 1000 nM'),
  ('Cn1cc(-c2cnc(N)c(C(=O)N[C@H]3CCC[C@@H]3OCc3ccc(-c4ccc5c(c4)CCC5N4CCN(CC(O)CO)CC4)cc3)c2)cn1 (stereo partly drawn)', '10 to 100 nM');

Please look at the following compound next.
Give the measured IC50 of `Nc1ncc(-c2ccc(F)nc2)cc1C(=O)N[C@H]1CCC[C@@H]1OCc1ccc(-c2ccc3c(c2)CC[C@@H]3N2CCN(CCO)CC2)cc1` . 10 to 100 nM

====

Target: human MER (528-end) (Homo sapiens)
Construct: human MER (528-end); purchased Camnabio, Japan
Procedure Summary: HTRF kinase activity biochemical assay, MER
Settings: 10 μM ATP, 30 minutes pre-incubation; read-out: HTRF MERTK IC50
pIC50: −log10 of the molar value.
As shown below, each of these compounds has a reported pIC50 value.

Example results:
INSERT INTO assay_data (compound, target, observed_value) VALUES
  ('COc1cccc(-c2cnc(N)c(C(=O)N[C@H]3CCC[C@@H]3OCc3ccc(-c4ccc5c(c4)CC[C@@H]5N4CCN(CCO)CC4)cc3)c2)n1', 'human MER (528-end) (Homo sapiens)', '> 8.00'),
  ('Cn1cc(-c2cnc(N)c(C(=O)N[C@H]3CCC[C@@H]3OCc3ccc(-c4ccc5c(c4)CCCC5N4CCNCC4)cc3)c2)cn1 (stereo partly shown)', 'human MER (528-end) (Homo sapiens)', '> 8.00'),
  ('Cn1cc(-c2cnc(N)c(C(=O)N[C@H]3CCC[C@@H]3OCc3ccc(-c4ccc5c(c4)CCCN5C4CCN(CCO)CC4)cc3)c2)cn1', 'human MER (528-end) (Homo sapiens)', '> 8.00'),
  ('CN1CCN([C@H]2CCc3cc(-c4ccc(CO[C@H]5CCC[C@@H]5NC(=O)c5cc(C(F)(F)F)cnc5N)cc4)ccc32)CC1', 'human MER (528-end) (Homo sapiens)', '> 8.00'),
  ('CN(CCC(O)CO)C1CCc2cc(-c3ccc(CO[C@H]4CCC[C@@H]4NC(=O)c4cc(-c5cccnc5F)cnc4N)cc3)ccc21 (stereo partly shown)', 'human MER (528-end) (Homo sapiens)', '7.00 to 8.00');

I am curious: what pIC50 value has been reported for CN1CCN(C2CC(C)(C)c3cc(-c4ccc(CO[C@H]5CCC[C@@H]5NC(=O)c5cc(-c6cccnc6F)cnc5N)cc4)ccc32)CC1 (stereo partly shown) ? > 8.00

Look up pIC50: `CN1CCN([C@H]2CC(C)(C)c3cc(-c4ccc(CO[C@H]5CCC[C@@H]5NC(=O)c5cc(-c6cnn(C)c6)cnc5N)cc4)ccc32)CC1` > 8.00
